Just for reference, paper PMC10133546 is where these values come from.

Provide the recorded Freeze thaw cycles Accuracy (%) for the entries that follow.
- Assay info: Stability of analytes in rat plasma (auto-sampler, freeze-thaw, room temperature, long-term)
- Measurement parameters: 100 ng/mL, three freeze-thaw cycles
Form entry: value (%) — number only.

For the compound shown here, O=C(/C=C/c1ccc(O)c(O)c1)O[C@@H]1C[C@](O)(C(=O)O)C[C@@H](O)[C@H]1O , give the reported Freeze thaw cycles Accuracy (%).
95.5

Next compound up: COc1ccc([C@@H]2CC(=O)c3c(O)cc(O[C@@H]4O[C@H](CO[C@@H]5O[C@@H](C)[C@H](O)[C@@H](O)[C@H]5O)[C@@H](O)[C@H](O)[C@H]4O)cc3O2)cc1O
95.7

Next compound up: O=C(/C=C/c1ccc(O)c(O)c1)O[C@H]1[C@H](O)C[C@](O)(C(=O)O)C[C@H]1O
88.9

Next compound up: O=C1C[C@@H](c2ccc(O[C@@H]3O[C@H](CO)[C@@H](O)[C@H](O)[C@H]3O)cc2)Oc2cc(O)ccc21
85.8

Next compound up: O=C(/C=C/c1ccc(O[C@@H]2O[C@H](CO)[C@@H](O)[C@H](O)[C@H]2O)cc1)c1ccc(O)cc1O
94.5

Next compound up: COc1ccc(/C=C/C(=O)O)cc1O
86.2

Next compound up: COC(=O)C1=CO[C@@H](O[C@@H]2O[C@H](CO)[C@@H](O)[C@H](O)[C@H]2O)[C@H]2[C@@H]1C(=O)C[C@@H]2C
87.8

Next compound up: COc1cc(/C=C/C(=O)O)ccc1O
115.0

Next compound up: O=C(O)[C@H]1O[C@@H](Oc2cc3oc(-c4ccc(O)cc4)cc(=O)c3c(O)c2O)[C@H](O)[C@@H](O)[C@@H]1O
111.0

Next compound up: CC(C)=CCC[C@](C)(O)[C@H]1CC[C@]2(C)[C@@H]1[C@H](O)C[C@@H]1[C@@]3(C)CC[C@H](O)C(C)(C)[C@@H]3[C@@H](O[C@@H]3O[C@H](CO)[C@@H](O)[C@H](O)[C@H]3O[C@@H]3O[C@H](CO)[C@@H](O)[C@H](O)[C@H]3O)C[C@]12C [ginsenoside Rf]
89.7

Next compound up: O=C(O)[C@H]1O[C@@H](Oc2cc(O)c3c(=O)cc(-c4ccc(O)cc4)oc3c2)[C@H](O)[C@@H](O)[C@@H]1O [apigenin-7-O-glucuronide]
86.4

Next compound up: C[C@]1(OC(=O)/C=C/c2ccccc2)C[C@@H](O)[C@]2(O)C=CO[C@@H](O[C@@H]3O[C@H](CO)[C@@H](O)[C@H](O)[C@H]3O)[C@@H]21 [harpagoside]
93.2

Next compound up: COc1c2c(cc3oc(CO)cc(=O)c13)O[C@H](C(C)(C)O)C2
95.7

Next compound up: O=C(O)C=Cc1ccc(O)cc1
87.0

Next compound up: C[C@@H]1O[C@@H](Oc2c(-c3ccc(O)c(O)c3)oc3cc(O)cc(O)c3c2=O)[C@H](O)[C@H](O)[C@H]1O
100.0

Next compound up: C[C@@]12C[C@@]3(O)O[C@@H](O1)[C@]1(COC(=O)c4ccccc4)[C@H]3C[C@@]12O[C@@H]1O[C@H](CO)[C@@H](O)[C@H](O)[C@H]1O
93.4

Next compound up: O=c1cc(-c2ccccc2)oc2cc(O)c(O)c(O)c12
98.2

Next compound up: O=C(O)c1ccc(O)c(O)c1
90.0

Next compound up: O=c1c(O[C@@H]2O[C@H](CO)[C@H](O)[C@H](O)[C@H]2O)c(-c2ccc(O)c(O)c2)oc2cc(O)cc(O)c12 [hyperoside]
93.5

Next compound up: COc1ccc(-c2coc3cc(O[C@@H]4O[C@H](CO)[C@@H](O)[C@H](O)[C@H]4O)ccc3c2=O)cc1
99.0

Next compound up: O=c1cc(-c2ccc(O)cc2)oc2c([C@@H]3O[C@H](CO)[C@@H](O)[C@H](O)[C@H]3O)c(O)cc(O)c12
85.5

Next compound up: CC(C)=CCC[C@](C)(O)[C@H]1CC[C@]2(C)[C@@H]1[C@H](O)C[C@@H]1[C@@]3(C)CC[C@H](O)C(C)(C)[C@@H]3[C@@H](O[C@@H]3O[C@H](CO)[C@@H](O)[C@H](O)[C@H]3O)C[C@]12C [ginsenoside Rh1]
100.0

* * *

- Assay info: Stability of analytes in rat plasma (auto-sampler, freeze-thaw, room temperature, long-term)
- Measurement parameters: 500 ng/mL, room temperature 24 h
Provide the recorded Room temperature for 24 h Accuracy (%) for the entries that follow.
Form entry: value (%) — number only.

For the molecule shown here, COc1c2c(cc3oc(CO)cc(=O)c13)O[C@H](C(C)(C)O)C2 , give the reported Room temperature for 24 h Accuracy (%).
98.6

Next molecule up: O=C1C[C@@H](c2ccc(O[C@@H]3O[C@H](CO)[C@@H](O)[C@H](O)[C@H]3O)cc2)Oc2cc(O)ccc21
89.3

Next molecule up: C[C@@H]1O[C@@H](Oc2c(-c3ccc(O)c(O)c3)oc3cc(O)cc(O)c3c2=O)[C@H](O)[C@H](O)[C@H]1O
98.0

Next molecule up: O=C(/C=C/c1ccc(O)c(O)c1)O[C@@H]1C[C@](O)(C(=O)O)C[C@@H](O)[C@H]1O
94.3

Next molecule up: CC(C)(O[C@@H]1O[C@H](CO)[C@@H](O)[C@H](O)[C@H]1O)[C@@H]1CC[C@](O)(CO)[C@H]2CC(=O)[C@@](C)(O)[C@@H]2C1 [atractyloside A]
91.2

Next molecule up: O=C(/C=C/c1ccc(O[C@@H]2O[C@H](CO)[C@@H](O)[C@H](O)[C@H]2O)cc1)c1ccc(O)cc1O
96.7

Next molecule up: O=c1cc(-c2ccc(O)cc2)oc2c([C@@H]3O[C@H](CO)[C@@H](O)[C@H](O)[C@H]3O)c(O)cc(O)c12
107.0

* * *

- Assay info: Stability of the working solution (4°C for 1 month)
- Type: physicochemical
- Measurement parameters: 100 ng/mL
Measured parameter: Working solution Accuracy (%)
Form entry: value (%) — number only.

For the compound shown here, CC(C)=CCC[C@](C)(O)[C@H]1CC[C@]2(C)[C@@H]1[C@H](O)C[C@@H]1[C@@]3(C)CC[C@H](O)C(C)(C)[C@@H]3[C@@H](O[C@@H]3O[C@H](CO)[C@@H](O)[C@H](O)[C@H]3O[C@@H]3O[C@H](CO)[C@@H](O)[C@H](O)[C@H]3O)C[C@]12C [ginsenoside Rf] , give the reported Working solution Accuracy (%).
110.0

Next compound up: O=C(O)C=Cc1ccc(O)cc1
95.9

Next compound up: COc1ccc(/C=C/C(=O)O)cc1O
95.7

* * *

- Assay info: Stability of analytes in rat plasma (auto-sampler, freeze-thaw, room temperature, long-term)
- Measurement parameters: 500 ng/mL, −80°C 1 month
Measured parameter: −80°C for 1month Accuracy (%)
Form entry: value (%) — number only.

For the molecule shown here, O=C1C[C@@H](c2ccc(O)cc2)Oc2cc(O)cc(O)c21 [naringenin] , give the reported −80°C for 1month Accuracy (%).
94.2

Next molecule up: COc1ccc(/C=C/C(=O)O)cc1O [isoferulic acid]
106.0

Next molecule up: O=C(/C=C/c1ccc(O)c(O)c1)O[C@@H]1C[C@](O)(C(=O)O)C[C@@H](O)[C@H]1O [chlorogenic acid]
94.3

Next molecule up: CC(C)=CCC[C@](C)(O)[C@H]1CC[C@]2(C)[C@@H]1[C@H](O)C[C@@H]1[C@@]3(C)CC[C@H](O)C(C)(C)[C@@H]3[C@@H](O[C@@H]3O[C@H](CO)[C@@H](O)[C@H](O)[C@H]3O[C@@H]3O[C@H](CO)[C@@H](O)[C@H](O)[C@H]3O)C[C@]12C [ginsenoside Rf]
112.0

* * *

- Assay info: Stability of analytes in rat plasma (auto-sampler, freeze-thaw, room temperature, long-term)
- Measurement parameters: 500 ng/mL, room temperature 24 h
Measured parameter: Room temperature for 24 h Accuracy (%)

For the compound shown here, C[C@]1(OC(=O)/C=C/c2ccccc2)C[C@@H](O)[C@]2(O)C=CO[C@@H](O[C@@H]3O[C@H](CO)[C@@H](O)[C@H](O)[C@H]3O)[C@@H]21 [harpagoside] , give the reported Room temperature for 24 h Accuracy (%).
95.7%

Next compound up: COc1c(O[C@@H]2O[C@H](C(=O)O)[C@@H](O)[C@H](O)[C@H]2O)cc(O)c2c(=O)cc(-c3ccccc3)oc12 [wogonoside]
93.4%

Next compound up: O=c1c(O[C@@H]2O[C@H](CO)[C@H](O)[C@H](O)[C@H]2O)c(-c2ccc(O)c(O)c2)oc2cc(O)cc(O)c12 [hyperoside]
99.1%

Next compound up: O=C1C[C@@H](c2ccc(O)cc2)Oc2cc(O)cc(O)c21 [naringenin]
95.2%

Next compound up: O=C(/C=C/c1ccc(O)c(O)c1)O[C@H]1[C@H](O)C[C@](O)(C(=O)O)C[C@H]1O [cryptochlorogenic acid]
100.0%

Next compound up: CC(C)=CCC[C@](C)(O)[C@H]1CC[C@]2(C)[C@@H]1[C@H](O)C[C@@H]1[C@@]3(C)CC[C@H](O)C(C)(C)[C@@H]3[C@@H](O[C@@H]3O[C@H](CO)[C@@H](O)[C@H](O)[C@H]3O[C@@H]3O[C@H](CO)[C@@H](O)[C@H](O)[C@H]3O)C[C@]12C [ginsenoside Rf]
113.0%

Next compound up: COc1ccc([C@@H]2CC(=O)c3c(O)cc(O[C@@H]4O[C@H](CO[C@@H]5O[C@@H](C)[C@H](O)[C@@H](O)[C@H]5O)[C@@H](O)[C@H](O)[C@H]4O)cc3O2)cc1O [hesperidin]
92.3%

Next compound up: O=C(O)[C@H]1O[C@@H](Oc2cc3oc(-c4ccc(O)cc4)cc(=O)c3c(O)c2O)[C@H](O)[C@@H](O)[C@@H]1O [scutellarin]
105.0%
